# SYSTEM: T1, IFN-αJ1 (human, UniProt P01567 24-189)
# T1 construct: Recombinant, HEK293; also called IFN-α7
# ASSAY_INFO: ProteOn SPR, cell supernatant;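 note: each binding measurement used just a single antigen concentration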
pKd: −log10 of the molar value.

{"columns": ["BINDER", "pKd"],
 "data": [
  ["IFWM3387 (antibody, IgG1, V domains shown, mAb; IgG1/kappa said of the parent and of selected mAbs; also called IFWB3122) VH: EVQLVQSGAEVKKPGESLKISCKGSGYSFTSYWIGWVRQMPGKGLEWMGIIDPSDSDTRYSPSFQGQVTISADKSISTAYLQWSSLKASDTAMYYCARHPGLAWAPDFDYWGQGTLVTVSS VL: DIQMTQSPSSLSASVGDRVTITCRASQSIGGFLNWYQQKPGKAPKLLIYFASSLQSGVPSRFSGSGSGTDFTLTISSLQPEDFATYYCQQSYSLPITFGQGTKVEIK", 9.79],
  ["IFWM3371 (antibody, IgG1, V domains shown, mAb; IgG1/kappa said of the parent and of selected mAbs; also called IFWB3106) VH: EVQLVQSGAEVKKPGESLKISCKGSGYSFTSYWIGWVRQMPGKGLEWMGIIDPSDSDTAYSPSFQGQVTISADKSISTAYLQWSSLKASDTAMYYCARHPGLNWAPDFDYWGQGTLVTVSS VL: DIQMTQSPSSLSASVGDRVTITCRASQSIANTNLNWYQQKPGKAPKLLIHWASSLQSGVPSRFSGSGSGTDFTLTISSLQPEDFATYYCQQWYDNPLTFGQGTKVEIK", 9.90]
]}
